- Organism: Homo sapiens
- experiment.description: Compound was tested in vitro for its inhibitory activity against human epidermoid carcinoma cell (H. Ep. 2) growth at a concentration of 10 uM
- Type: functional
- experimental.context: HEp-2
observation.type: IC50 (nM)
I only need the number, in nM, no unit after it.

# count of solved cases: 2
Which IC50 value belongs to CCOC(=O)c1ccc2[nH]c(NC(=O)OC)nc2c1 ?
240

Again, but for COC(=O)Nc1nc2cc(C(=O)c3cccs3)ccc2[nH]1
33

Now for another entry.
Which IC50 value belongs to COC(=O)Nc1nc2cc(C(=O)OC)ccc2[nH]1 ?
1100

----------
Reported pIC50 values follow for various compounds
- Species: Homo sapiens
- experiment.description: Compound was tested in vitro for its inhibitory activity against human epidermoid carcinoma cell (H. Ep. 2) growth at a concentration of 10 uM
- Assay type: functional
- experimental.context: HEp-2
Scale explanation: pIC50 corresponds to minus log10 of a concentration expressed in moles per litre.

So what's the measured pIC50 for this one? COC(=O)Nc1nc2cc(C(=O)OCc3cccs3)ccc2[nH]1
5.64

Also need COC(=O)Nc1nc2cc(C(=O)OC(C)C)ccc2[nH]1 , thanks.
6.66

Next:
May I ask what pIC50 has been recorded for COC(=O)Nc1nc2cc(C(=O)NC(C)C)ccc2[nH]1 ?
5.80

Lookup CC(C)OC(=O)Nc1nc2cc(C(=O)OC(C)C)ccc2[nH]1
6.41

Query CCNC(=O)c1ccc2[nH]c(NC(=O)OC)nc2c1 next
5.22

And then CCOC(=O)Nc1nc2cc(C(=O)OCC)ccc2[nH]1 , what is it?
6.54
